experiment: NCI Yeast Anticancer Drug Screen. Data for the rad50 strain (AID 155);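 further: 0% = growth of vehicle-only cultures of the same strain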; settings: S. cerevisiae rad50 strain growth inhibition; at 5.0 µM (retest, dose inferred, filed as 0.5); hits give high values
About 79,000 compounds went through this panel and 15% of them were active in at least one assay; those are over-represented in the sample as a whole.
valueKind: growth inhibition (%)
Answers are plain numbers, in %.

Cc1c[n+](CC(=O)c2ccc(I)cc2)c(C)s1 ... 0

Could I get growth inhibition for every one of these entries?
1. O=C(O)C1C(C(=O)O)C2C(=O)C=CC1N2Cc1ccccc1 (stereo not drawn)
2. Cn1c(=O)c2c(O)c(-c3ccccc3)c(=O)n3c4ccccc4n(c1=O)c23

1. 11
2. 19

Could I get growth inhibition for every one of these entries?
1. CCOC(=O)C(=C=Cc1cccs1)C(=O)c1ccccc1
2. O=C(O)CCSc1ncnc2nc[nH]c12
3. CCNC(=O)NNc1ncnc2c1c(-c1ccc(Cl)cc1)cn2-c1ccc(C)cc1
4. CCOC1(c2ccccc2)c2ccccc2S(=O)(=O)N1C (stereo not drawn)
5. C=CCOC(=O)CC(O)C(=O)OCC=C (stereo not drawn)

1: 16; 2: 3; 3: -10; 4: -3; 5: -5
